Reported concentration in single-turnover reaction values for a set of compounds
target: human P450 11A1 (Homo sapiens); experiment: Single-turnover kinetics of P450 11A1 with [1,2-3H]-cholesterol (radio-HPLC); format: biochemical; design: M A S T R S P R P F N E I P S P G D N; Met-Ala (N-terminal start residues in place of the transit peptide and Ile40) (N); made in house; host or cells: E. coli (P450 11A1 in C41(DE3); Adx and AdR in E. coli); details: 10-fold excess (high) Adx, time 20 s
Sequence (P05108 41-521 limits assumed): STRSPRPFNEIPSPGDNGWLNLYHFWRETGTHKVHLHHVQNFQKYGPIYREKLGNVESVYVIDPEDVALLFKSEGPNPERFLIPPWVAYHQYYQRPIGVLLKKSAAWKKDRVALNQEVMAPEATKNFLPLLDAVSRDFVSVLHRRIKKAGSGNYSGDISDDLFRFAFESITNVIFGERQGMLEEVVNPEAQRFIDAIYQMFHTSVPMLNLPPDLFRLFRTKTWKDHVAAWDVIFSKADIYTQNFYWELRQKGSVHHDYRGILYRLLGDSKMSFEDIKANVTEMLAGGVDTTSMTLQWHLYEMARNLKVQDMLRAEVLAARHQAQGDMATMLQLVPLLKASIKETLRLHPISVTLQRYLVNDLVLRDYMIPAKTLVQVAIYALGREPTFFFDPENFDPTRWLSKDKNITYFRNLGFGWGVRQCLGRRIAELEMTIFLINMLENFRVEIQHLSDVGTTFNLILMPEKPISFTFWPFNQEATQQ
Sequence (P00257 59-186 partner): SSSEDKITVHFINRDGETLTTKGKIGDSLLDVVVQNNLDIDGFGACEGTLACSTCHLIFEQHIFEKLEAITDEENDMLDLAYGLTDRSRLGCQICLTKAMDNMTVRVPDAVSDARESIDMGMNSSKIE
Provide the reading as a plain figure in µM.

Field: example entries. Status: answers known.
INSERT INTO results (compound, unit_info, obs_value) VALUES
  ('CC(=O)[C@H]1CC[C@H]2[C@@H]3CC=C4C[C@@H](O)CC[C@]4(C)[C@H]3CC[C@]12C', 'µM', 3.346),
  ('CC(C)CCC[C@@H](C)[C@H]1CC[C@H]2[C@@H]3CC=C4C[C@@H](O)CC[C@]4(C)[C@H]3CC[C@]12C', 'µM', 0.9421),
  ('CC(C)CC[C@@H](O)[C@](C)(O)[C@H]1CC[C@H]2[C@@H]3CC=C4C[C@@H](O)CC[C@]4(C)[C@H]3CC[C@]12C [20R,22R-(OH)2 Chol, (20R,22R)-Cholest-5-ene-3β,20,22-triol]', 'µM', 0.1106);

Could you share which concentration in single-turnover reaction value was measured for CC(C)CC[C@@H](O)[C@@H](C)[C@H]1CC[C@H]2[C@@H]3CC=C4C[C@@H](O)CC[C@]4(C)[C@H]3CC[C@]12C [22R-OH Chol, 22R-hydroxycholesterol] ? 0.101

* * *

molecular target: human P450 11A1 (Homo sapiens); assay: Single-turnover kinetics of P450 11A1 with [1,2-3H]-cholesterol (radio-HPLC); type: biochemical; design: M A S T R S P R P F N E I P S P G D N; Met-Ala (N-terminal start residues in place of the transit peptide and Ile40) (N); made in house; host or cells: E. coli (P450 11A1 in C41(DE3); Adx and AdR in E. coli); conditions: 10-fold excess (high) Adx, time 15 s
assay readout: concentration in single-turnover reaction (µM)
Provide the reading as a plain figure in µM.

Could you share which concentration in single-turnover reaction value was measured for CC(C)CC[C@@H](O)[C@](C)(O)[C@H]1CC[C@H]2[C@@H]3CC=C4C[C@@H](O)CC[C@]4(C)[C@H]3CC[C@]12C [20R,22R-(OH)2 Chol, (20R,22R)-Cholest-5-ene-3β,20,22-triol] ? 0.1522

Could you share which concentration in single-turnover reaction value was measured for CC(C)CC[C@@H](O)[C@@H](C)[C@H]1CC[C@H]2[C@@H]3CC=C4C[C@@H](O)CC[C@]4(C)[C@H]3CC[C@]12C [22R-OH Chol, 22R-hydroxycholesterol] ? 0.1351

Could you share which concentration in single-turnover reaction value was measured for CC(=O)[C@H]1CC[C@H]2[C@@H]3CC=C4C[C@@H](O)CC[C@]4(C)[C@H]3CC[C@]12C [Pregnenolone] ? 2.973

Could you share which concentration in single-turnover reaction value was measured for CC(C)CCC[C@@H](C)[C@H]1CC[C@H]2[C@@H]3CC=C4C[C@@H](O)CC[C@]4(C)[C@H]3CC[C@]12C [Cholesterol] ? 1.24

Data provenance: paper PMC10716780
